# assayed_target: T1, CD134 expressed on the cell surface of HT1080_OX40 cells (human, UniProt P43489 29-277); note: test concentration or dose not given here
# T1 sequence (looked up): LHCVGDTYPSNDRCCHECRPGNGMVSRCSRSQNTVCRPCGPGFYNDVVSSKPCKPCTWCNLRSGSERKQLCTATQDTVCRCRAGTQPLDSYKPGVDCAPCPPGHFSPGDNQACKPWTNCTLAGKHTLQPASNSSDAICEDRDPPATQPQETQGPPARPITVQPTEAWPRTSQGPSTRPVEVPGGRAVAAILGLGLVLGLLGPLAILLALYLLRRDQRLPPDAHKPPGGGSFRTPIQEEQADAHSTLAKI
# assay_remarks: cell-based or functional assay
observation_type: Functional assay IL-8 (abs. corr.)
Output spec: scalar in abs. corr., unitless text.

A selection of reference data follows.
- binder: "P018.S.04.A.G05 (antibody, V domains shown, V regions on human Ig constant parts; also called AB134_14) VH: QSVEESGGRLVTPGTPLTLTCTVSGFSLSTYYMSWVRQAPGKSLEWIGCIHGDDGSTWYASWVQGRFTISKASTTVDLQIASPTTEDTATYFCARGLPYWPNDGDFNLWGQGTLVTVSS VL: TQVLTQTPSPVSAAVGGTVSISCQSSQSVYNNNWLSWFQQKPGQPPKLLVYGASTLASGVPSRFKGSGSGTQFTLTISDLESDDAATYYCAGGYYTTSDNGFGGGTEVVVK"
  u: "abs. corr."
  Functional assay IL-8: -0.022
- binder: "P018.S.11.A.D06 (antibody, V domains shown, V regions on human Ig constant parts; also called AB134_32) VH: QSLEESGGRLVKPGESLTLTCTVSEFSLSSNAMGWVRQAPGKGLEFIGLIDSGGDAYYATWAKGRFTISKTSSTTVDLKATSLTTEDTATYFCGRGYWFPRLGLWGQGTLVTVSS VL: AAVLTQTPSPVSAAVGGTVSINCQSTKNVYLNNWLGWFQKKPGQPPKLLIYDASTLASGVPSRFKGSGSGTEFTLTISDLESDDAATYYCAGAYDDNSDHTFGGGTEVVVK"
  u: "abs. corr."
  Functional assay IL-8: 0.019
- binder: "P018.S.12.A.A04 (antibody, V domains shown, V regions on human Ig constant parts; also called AB134_53) VH: QSVEESGGRLVTPGTPLTLTCTVSGIDLSSYAMSWVRQAPGKGLEYIGIISGSGNTYYASWAKGRFTISKTSTTVDLKISSPTTEDTATYFCCRGDPSYSIDGFDPWGPGTLVTVSS VL: AAVLTQTPSPVSAAVGGTVTINCQSSQSVYNNNDLAWYQQKPGQPPKLLIYRASNLASGVPSRFSGSGSGTQFTLTISGVQSGDAATYYCLGAWDDDADTWAFGGGTEVVVE"
  u: "abs. corr."
  Functional assay IL-8: -0.007
- binder: "P018.S.12.A.G01 (antibody, V domains shown, V regions on human Ig constant parts; also called AB134_83) VH: QSVEESGGRLVTPGTPLTLTCTVSGFSLSSSTMGWFRQAPGKGLEWIGVIYTDGDTYYARWAKGRFTISKTSTTINLSITSPTSEDTATYFCARRANGYDDFDPWGPGTLVTVSS VL: AYDMTQTPASVEVAVGGTVTIKCQASESISSYLNWYQQKPGQPPKLLIYYESYLASGVPSRFKGSGSGTEYTLTISGVESADAATYYCQQGFSYINVDNTFGGGTEVVVK"
  u: "abs. corr."
  Functional assay IL-8: 1.33

Switching to the query record.
Prompt: Need Functional assay IL-8 of P018.S.12.A.G03 (antibody, V domains shown, V regions on human Ig constant parts; also called AB134_85) VH: QSLEESGGRLVTPGGSLTLTCTLSGIDLSSNAISWVRQAPGKGLEWIGIIFPGDNIYYATWAKGRFTISKTSTTVDLKMTSLRTADTATYFCARYHADDSVDLWGPGTLVTVSS VL: AYDMTQTPASVSEPVGGTVTIKCQASQSINGWLSWYQQKPGQRPRLLIYRASDLAPGVSSRFKGSGSGTQFTLTISDVESADAATYYCHLGDIYSNIDYVFGGGTEVVVK , thanks.
Completion: 0.209

Values compiled from patent US20210253725A1.
